Measured values drawn from the supplement of paper PMC12645437 for this set.

- target desc: T1, CRBN, Q96SW2;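 also: pooled lentiviral library of zinc finger degron-EGFP fusions in mCherry-positive Jurkat cells, FACS-sorted after compound exposure, with degron abundance counted by next-generation sequencing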
- T1 chain: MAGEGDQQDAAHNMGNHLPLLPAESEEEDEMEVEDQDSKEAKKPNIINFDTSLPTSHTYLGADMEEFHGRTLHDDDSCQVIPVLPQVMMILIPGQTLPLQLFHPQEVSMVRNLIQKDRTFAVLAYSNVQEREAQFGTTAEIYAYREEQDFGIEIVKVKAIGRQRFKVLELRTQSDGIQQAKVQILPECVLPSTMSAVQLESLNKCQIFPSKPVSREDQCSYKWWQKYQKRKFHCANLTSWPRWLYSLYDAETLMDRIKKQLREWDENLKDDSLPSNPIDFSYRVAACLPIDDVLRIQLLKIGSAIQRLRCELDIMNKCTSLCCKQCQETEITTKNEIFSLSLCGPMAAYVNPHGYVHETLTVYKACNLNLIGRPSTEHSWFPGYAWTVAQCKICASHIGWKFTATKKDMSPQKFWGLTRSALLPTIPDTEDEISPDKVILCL
- test protocol: log2 fold change of degron read counts, EGFP-low vs EGFP+ sorted cells (limma voom), compound-induced degradation; higher = more compound-induced degradation of the degron-EGFP fusion; degrons are variants of IKZF1/3 zinc finger 2; compound dose not given here
- assay setup: Jurkat; 18 h; compound: compound 22 (5-morpholino-thalidomide)
Whole data set: some 8,300 sequences, median “log2 fold change of degron read counts, EGFP-low vs EGFP+ sorted cells (limma voom), compound-induced degradation” near -1.1, cut for the highest 2% near 3.2. Many of the other results were omitted from the sample, so the highest values are more common in it than they were.
Give fulfilled when the value for log2 fold change of degron read counts is at least 1. Give not fulfilled when it is less.

Illustrative cases are given below, each with its answer.
# residue sequence, qualitative label
records = [
    ("FNCDVCGAHFTQKGNLLRHIKL [46F_47N_49D_50V_52G_53A_54H_55F_67L_, Q9UKT9]", "not fulfilled"),
    ("FDCDICGAPFTQKGNLLRHIKL [46F_47D_49D_50I_52G_53A_54P_55F_67L_, Q9UKT9]", "not fulfilled"),
    ("FMCDICGAPFTQKGNLLRHIKL [46F_47M_49D_50I_52G_53A_54P_55F_67L_, Q9UKT9]", "fulfilled"),
]

Consider the record given below.
Q: Is it the case that FKCDICGAPFTQKGNLLRHIKL [46F_47K_49D_50I_52G_53A_54P_55F_67L_, Q9UKT9] has log2 fold change of degron read counts reaching or exceeding 1?
Result: not fulfilled
